Measurement Target: Human recombinant PDE10A (hPDE10A) (Homo sapiens)
Construct: His tag (inferred from metal chelate purification); made in house; host or cells: Sf9 insect cells (baculovirus)
Method Notes: In vitro assay PDE10A, human clone (SPA, 3H-cAMP hydrolysis)
Assay type: biochemical
Run Conditions: human clone (h), default; read-out: hPDE10A2 Emax
For each entry below, report its Emax value.
Unit % implied. Number only.

// field: Emax; key: COc1cc(C(=O)N2CC[C@@H](C)[C@H](c3cc(C(F)F)nc4ncnn34)C2)ccc1C1CC1 ; value = 99

// field: Emax; key: Cc1c(C(=O)N2CC[C@@H](C)[C@H](c3cc(C(F)F)nc4ncnn34)C2)oc2ccccc12 ; value = 100

// field: Emax; key: COc1ccc2nc(C(=O)N3CC[C@@H](C)[C@H](c4cc(C(F)F)nc5ncnn45)C3)sc2c1 ; value = 97

// field: Emax; key: Cc1cc(C(=O)N2CC[C@@H](C)[C@H](c3cc(C(F)F)nc4ncnn34)C2)cc(C)c1C#N ; value = 98

// field: Emax; key: C[C@@H]1CCN(C(=O)c2ccc3ocnc3c2)C[C@H]1c1cc(C(F)F)nc2ncnn12 ; value = 99

// field: Emax; key: Cc1nc2ccncc2cc1C(=O)N1CC[C@@H](C)[C@H](c2cc(C(F)F)nc3ncnn23)C1 ; value = 85

// field: Emax; key: Cc1cc(C(=O)N2CC[C@@H](C)[C@H](c3cc(C(F)F)nc4ncnn34)C2)cc(Cl)c1F ; value = 99

// field: Emax; key: COc1cc(C(=O)N2CC[C@@H](C)[C@H](c3cc(C(F)F)nc4ncnn34)C2)ccc1Cl ; value = 96

// field: Emax; key: Cc1cnoc1C(=O)N1CC[C@@H](C)[C@H](c2cc(C(F)F)nc3ncnn23)C1 ; value = 88

// field: Emax; key: Cc1cc(C(=O)N2CC[C@@H](C)[C@H](c3cc(C(F)F)nc4ncnn34)C2)cc(OC(C)C)n1 ; value = 99

// field: Emax; key: Cc1cc(C(=O)N2CC[C@@H](C)[C@H](c3cc(C(F)F)nc4ncnn34)C2)cc(C2CC2)n1 ; value = 99

---

Measurement Target: Human recombinant PDE10A (hPDE10A) (Homo sapiens, UniProt Q9Y233)
Construct: His tag (inferred from metal chelate purification); made in house; host or cells: Sf9 insect cells (baculovirus)
Sequence (Q9Y233 267-1055): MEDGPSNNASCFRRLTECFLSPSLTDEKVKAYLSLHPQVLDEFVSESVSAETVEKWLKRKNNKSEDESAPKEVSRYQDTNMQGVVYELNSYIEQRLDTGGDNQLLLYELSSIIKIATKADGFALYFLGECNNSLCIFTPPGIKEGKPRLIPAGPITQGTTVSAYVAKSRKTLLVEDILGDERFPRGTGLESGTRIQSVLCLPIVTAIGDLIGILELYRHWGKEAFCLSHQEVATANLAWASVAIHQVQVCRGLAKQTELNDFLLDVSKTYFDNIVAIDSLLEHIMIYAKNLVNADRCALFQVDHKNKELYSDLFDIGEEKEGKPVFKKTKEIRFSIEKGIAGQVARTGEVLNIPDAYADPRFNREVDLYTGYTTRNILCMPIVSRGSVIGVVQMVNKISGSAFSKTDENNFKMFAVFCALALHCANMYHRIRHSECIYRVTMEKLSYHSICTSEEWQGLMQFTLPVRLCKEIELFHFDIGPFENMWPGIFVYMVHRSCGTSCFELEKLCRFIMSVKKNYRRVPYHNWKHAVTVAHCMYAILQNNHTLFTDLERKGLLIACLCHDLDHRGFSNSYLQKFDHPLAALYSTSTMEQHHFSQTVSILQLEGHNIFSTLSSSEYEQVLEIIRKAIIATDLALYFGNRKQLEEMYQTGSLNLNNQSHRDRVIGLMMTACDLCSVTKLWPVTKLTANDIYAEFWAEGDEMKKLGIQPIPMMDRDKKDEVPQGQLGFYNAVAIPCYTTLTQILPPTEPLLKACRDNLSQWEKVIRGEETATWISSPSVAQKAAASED
Method Notes: In vitro assay PDE10A, human clone (SPA, 3H-cAMP hydrolysis)
Type: biochemical
Run Conditions: human clone by default (no (r) mark); read-out: hPDE10A2 or rPDE10A2 pIC50 (converted)
For each entry below, report its IC50 value.
Unit µM implied. Number only.

// field: IC50; key: Cn1ccc2cc(C(=O)N3[C@H]4CC[C@H](c5cc(C(F)F)nc6ncnn56)[C@@H]3CC4)ncc21 ; value = 3.98

// field: IC50; key: Cc1nn(C)c2sc(C(=O)N3[C@H]4CC[C@H](c5cc(C(F)F)nc6ncnn56)[C@@H]3CC4)cc12 ; value = 0.0871

// field: IC50; key: C[C@@H]1CCN(C(=O)c2cc(C(C)(C)C)cc(C(C)(C)C)c2)C[C@H]1c1cc(C(F)F)nc2ncnn12 ; value = 1.7

// field: IC50; key: O=C(c1ccc2ncc(F)cc2c1)N1[C@H]2CC[C@H](c3cc(C(F)F)nc4ncnn34)[C@@H]1CC2 ; value = 0.617
